Reference for the values: paper PMC6332036

Target: PI3Kγ (Homo sapiens, UniProt P48736)
Sequence (P48736 whole entry): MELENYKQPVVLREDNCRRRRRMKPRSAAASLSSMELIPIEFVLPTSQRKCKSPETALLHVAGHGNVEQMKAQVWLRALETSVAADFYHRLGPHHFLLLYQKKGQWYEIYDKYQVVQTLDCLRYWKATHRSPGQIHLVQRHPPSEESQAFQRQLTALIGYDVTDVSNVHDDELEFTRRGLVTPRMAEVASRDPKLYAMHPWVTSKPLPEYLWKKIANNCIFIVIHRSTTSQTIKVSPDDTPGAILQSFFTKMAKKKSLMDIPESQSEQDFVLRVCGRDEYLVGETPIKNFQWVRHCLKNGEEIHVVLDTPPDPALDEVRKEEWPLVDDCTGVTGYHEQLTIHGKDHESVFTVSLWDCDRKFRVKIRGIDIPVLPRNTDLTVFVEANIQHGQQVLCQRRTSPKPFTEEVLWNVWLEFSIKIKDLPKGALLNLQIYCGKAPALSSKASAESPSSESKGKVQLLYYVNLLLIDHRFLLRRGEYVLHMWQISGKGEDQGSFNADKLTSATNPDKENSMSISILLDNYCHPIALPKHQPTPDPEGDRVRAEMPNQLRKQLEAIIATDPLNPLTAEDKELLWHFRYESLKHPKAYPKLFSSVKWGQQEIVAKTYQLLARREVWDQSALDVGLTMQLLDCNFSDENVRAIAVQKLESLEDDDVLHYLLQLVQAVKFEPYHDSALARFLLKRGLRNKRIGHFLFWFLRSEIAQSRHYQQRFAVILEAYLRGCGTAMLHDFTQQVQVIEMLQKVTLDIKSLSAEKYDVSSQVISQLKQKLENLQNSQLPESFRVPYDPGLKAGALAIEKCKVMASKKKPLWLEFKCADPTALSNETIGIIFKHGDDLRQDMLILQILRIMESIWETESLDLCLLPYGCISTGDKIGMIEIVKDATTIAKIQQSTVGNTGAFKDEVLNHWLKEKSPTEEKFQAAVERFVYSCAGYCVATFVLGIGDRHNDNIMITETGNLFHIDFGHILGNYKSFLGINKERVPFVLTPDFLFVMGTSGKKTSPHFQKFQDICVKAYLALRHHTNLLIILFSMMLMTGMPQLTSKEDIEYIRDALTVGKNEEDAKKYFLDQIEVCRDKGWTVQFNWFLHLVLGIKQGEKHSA
Assay: ADP-Glo luminescent lipid kinase assay, PI3Kγ
Conditions: recombinant enzyme 30 ng, 10 μM ATP, 30 min, room temperature; standard error (SE)
For each of the molecules below, state its IC50.
Give bare numbers, in nM.

Answered examples (5):
• Cc1ccc(-c2cc(N3CCOCC3)nc(-c3cccc(O)c3)c2C#N)cc1C = 4430
• COc1ccc(-c2cc(N3CCOCC3)nc(-c3cccc(O)c3)c2C#N)cc1 = 2180
• COc1ccc(-c2cc(N3CCOCC3)nc(-c3cccc(O)c3)c2C#N)cc1OC = 2910
• Cc1cc(N2CCOCC2)nc(-c2cccc(O)c2)c1C#N = 1050
• COc1cccc(-c2cc(N3CCOCC3)nc(-c3cccc(O)c3)c2C#N)c1 = 1640

Take each entry in turn and give its IC50.
1. N#Cc1c(-c2cccnc2)cc(N2CCOCC2)nc1-c1cccc(O)c1
2. N#Cc1c(-c2ccncc2)cc(N2CCOCC2)nc1-c1cccc(O)c1

Return:
1: 2430; 2: 1560
